target: Metallo-beta-lactamase type 2 (Bacteria) (UniProt C7C422); assay: Inhibition of bacterial NDM-1 assessed as substrate hydrolysis at 50 uM using imipenem as substrate by spectrophotometric analysis relative to control
Sequence (C7C422 whole entry): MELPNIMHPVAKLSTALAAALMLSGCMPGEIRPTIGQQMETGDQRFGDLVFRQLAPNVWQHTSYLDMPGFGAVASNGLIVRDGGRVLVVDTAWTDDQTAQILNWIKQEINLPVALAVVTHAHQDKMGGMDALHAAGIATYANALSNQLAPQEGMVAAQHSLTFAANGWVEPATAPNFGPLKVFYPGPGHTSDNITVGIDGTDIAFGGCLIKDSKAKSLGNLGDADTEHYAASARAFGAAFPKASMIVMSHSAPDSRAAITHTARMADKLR
Overview of recorded inhibition for various compounds
reported-metric: inhibition

{"columns": ["smiles-structure", "value-observed"],
 "data": [
  ["NCCN[C@H]1CC[C@@H](CC(=O)N[C@H]2Cc3cccc(C(=O)O)c3OB2O)CC1", "> 98%"],
  ["O=C1/C(=C/c2c(O)cc(O)cc2O)Oc2cc(O)ccc21", "< 10%"],
  ["O=C1/C(=C/c2cn(Cc3ccccc3Br)c3ccccc23)Oc2cc(O)cc(O)c21", "< 10%"]
]}

====

Overview of recorded inhibition for various compounds
biological target: Metallo-beta-lactamase type 2 (Bacteria); assay: Inhibition of bacterial NDM-1 assessed as substrate hydrolysis at 50 uM using imipenem as substrate by spectrophotometric analysis relative to control
reported-metric: inhibition

{"columns": ["smiles-structure", "value-observed"],
 "data": [
  ["O=C1/C(=C/c2ccc(C(F)(F)F)cc2)Oc2c1ccc(O)c2O", "< 10%"],
  ["COc1cc(/C=C2\\Oc3cc(O)ccc3C2=O)ccc1O", "< 10%"],
  ["CN1CCN(c2ccc(/C=C3\\Oc4cc(O)ccc4C3=O)cc2)CC1", "< 10%"],
  ["O=C1/C(=C/c2ccc(F)cc2)Oc2c(O)cccc21", "< 10%"],
  ["Cc1cccc(Cn2cc(/C=C3\\Oc4cc(O)cc(O)c4C3=O)c3ccccc32)c1", "54%"],
  ["COc1ccc(/C=C2\\Oc3c(ccc(O)c3O)C2=O)c(OC)c1", "30%"],
  ["O=C1/C(=C/c2ccc(O)cc2O)Oc2ccccc21", "< 10%"],
  ["COc1cc(OC)c2c(c1)O/C(=C\\c1ccc(OC)c(OC)c1OC)C2=O", "< 10%"],
  ["CCCCOc1ccc(/C=C2\\Oc3cc(O)cc(O)c3C2=O)c(O)c1", "46%"],
  ["CCCCn1cc(/C=C2\\Oc3cc(O)cc(O)c3C2=O)c2cc(O)ccc21", "< 10%"],
  ["COc1ccc(/C=C2\\Oc3cc(O)cc(O)c3C2=O)c(OC)c1", "52%"],
  ["O=C1/C(=C/c2ccccc2O)Oc2cc(O)cc(O)c21", "< 10%"],
  ["COc1ccc(/C=C2\\Oc3cc(OC)cc(OC)c3C2=O)c(OC)c1", "< 10%"],
  ["COc1cc(OC)c2c(c1)O/C(=C\\c1ccc(F)cc1F)C2=O", "35%"],
  ["COc1ccc(/C=C2\\Oc3cc(O)ccc3C2=O)c(OC)c1", "17%"],
  ["COc1ccc(/C=C2\\Oc3ccccc3C2=O)c(OC)c1OC", "< 10%"]
]}

====

test system: Bacteria; assay: Inhibition of bacterial VIM-2 assessed as substrate hydrolysis at 50 uM using imipenem as substrate by spectrophotometric analysis relative to control

{"columns": ["smiles-structure", "inhibition"],
 "data": [
  ["CCCCOc1ccc(/C=C2\\Oc3cc(O)cc(O)c3C2=O)cc1", "< 10%"],
  ["Cc1cccc(Cn2cc(/C=C3\\Oc4cc(O)cc(O)c4C3=O)c3ccccc32)c1", "11%"],
  ["O=C1/C(=C/c2cn(Cc3ccc(Br)cc3)c3ccccc23)Oc2cc(O)cc(O)c21", "< 10%"],
  ["NCCN[C@H]1CC[C@@H](CC(=O)N[C@H]2Cc3cccc(C(=O)O)c3OB2O)CC1", "> 98%"],
  ["COc1ccc(/C=C2\\Oc3c(O)cccc3C2=O)cc1", "< 10%"],
  ["COc1cc(OC)c2c(c1)O/C(=C\\c1ccc(-c3cccs3)cc1)C2=O", "< 10%"],
  ["O=C1/C(=C/c2cn(Cc3cccc(Br)c3)c3ccccc23)Oc2cc(O)cc(O)c21", "< 10%"],
  ["COc1cc(/C=C2\\Oc3ccccc3C2=O)ccc1O", "< 10%"],
  ["CC(C)CCn1cc(/C=C2\\Oc3cc(O)cc(O)c3C2=O)c2ccccc21", "< 10%"],
  ["O=C1/C(=C/c2cn(Cc3cccc(O)c3)c3ccccc23)Oc2cc(O)cc(O)c21", "< 10%"],
  ["COc1ccc(/C=C2\\Oc3cc(O)cc(O)c3C2=O)c(OC)c1OC", "< 10%"],
  ["O=C1/C(=C/c2cn(CCCc3ccccc3)c3ccccc23)Oc2cc(O)cc(O)c21", "< 10%"]
]}
